Experiment: Metabolic stability in rat liver microsomes assessed as half life
Assay type: ADME, Microsome
Measured half-life, listed per entry for reference.
Number only, in h; omit the unit.

{"columns": ["chemical_string", "half-life, h"],
 "data": [
  ["CCN(CC)C(=O)c1nc(-c2nnc(C(C)(C)O)o2)sc1-c1ccc(S(=O)(=O)N[C@@H](C)C(F)(F)F)c(Cl)c1Cl", 1.58],
  ["C[C@H](NS(=O)(=O)c1ccc(-c2sc(C(=O)NCC(C)(C)O)nc2CC2CCC2)c(Cl)c1Cl)C(F)(F)F", 0.617]
]}

Which half-life is reported for this molecule? C[C@H](NS(=O)(=O)c1ccc(-c2sc(-c3nnc(C(C)(C)O)o3)nc2C(=O)N2CCC(F)(F)CC2)c(Cl)c1Cl)C(F)(F)F 2.47

* * *

# half-life listing for each entry below
Assay: Metabolic stability in human liver microsomes assessed as half life
Assay type: ADME, Microsome

{"columns": ["chemical_string", "reported_property", "result"],
 "data": [
  ["C[C@H](NS(=O)(=O)c1ccc(-c2sc(-c3nnc(C(C)(C)O)o3)nc2C(=O)N2CCC(F)(F)CC2)c(Cl)c1Cl)C(F)(F)F", "half-life", "> 180 min"]
]}

Which half-life reading was recorded for the compound CC[C@H](NS(=O)(=O)c1ccc(-c2sc(CC(C)(C)C(=O)O)nc2CC2CCC2)c(C(F)F)c1F)C(F)(F)F ? > 180 min

* * *

Here, each record is paired with measured solubility data.
Test: Solubility of compound by pH 2
Type: physicochemical
Details: buffer

{"columns": ["chemical_string", "result"],
 "data": [
  ["C[C@H](NS(=O)(=O)c1ccc(-c2sc(-c3cnc(CC(C)(C)C(=O)O)s3)nc2CC2CCC2)c(Cl)c1Cl)C(F)(F)F", "< 4 µM"]
]}

Entry under review: CC[C@H](NS(=O)(=O)c1ccc(-c2sc(-c3nnc(CC(C)(C)C(=O)O)o3)nc2CC2CCCC2)c(C(F)F)c1F)C(F)(F)F . Reported solubility? < 4 µM

Can you share its solubility? I mean this molecule: COC(C)(C)Cc1nc(-c2nnc(CC(C)(C)C(=O)O)o2)sc1-c1ccc(S(=O)(=O)N[C@@H](C)C(F)(F)F)c(F)c1C(F)F < 4 µM

Quick check: solubility of CC(C)(C)NS(=O)(=O)c1ccc(-c2sc(-c3nnc(C(C)(C)O)o3)nc2CC2CCCCC2)c2ccccc12 ? < 1 µM

* * *

Test: Solubility of compound by pH 7
Assay type: physicochemical
Conditions: buffer
List of solubility values.
Express the result in µM but write the number alone.

{"columns": ["chemical_string", "unit_tag", "solubility"],
 "data": [
  ["CC[C@H](NS(=O)(=O)c1ccc(-c2sc(-c3nnc(CC(C)(C)O)o3)nc2C(=O)N2CCC(F)CC2)c(Cl)c1Cl)C(F)(F)F", "µM", 99],
  ["C[C@H](NS(=O)(=O)c1ccc(-c2sc(-c3noc(C(C)(C)O)n3)nc2C(=O)N2CCC(F)CC2)c(Cl)c1Cl)C(F)(F)F", "µM", 6.4],
  ["C[C@H](NS(=O)(=O)c1ccc(-c2sc(-c3noc(CC(C)(C)C(=O)O)n3)nc2CC2CCC2)c(Cl)c1Cl)C(F)(F)F", "µM", 38],
  ["CC[C@H](NS(=O)(=O)c1ccc(-c2sc(CC(C)(C)C(=O)O)nc2CC2CCC2)c(Cl)c1Cl)C(F)(F)F", "µM", 178],
  ["C[C@H](NS(=O)(=O)c1ccc(-c2sc(-c3nnc(CC(C)(C)C(=O)O)o3)nc2C(=O)N2CCCC[C@@H]2C)c(C(F)F)c1F)C(F)(F)F", "µM", 398]
]}

If you can, please state the reported solubility value of COC(C)(C)Cc1nc(-c2nnc(CC(C)(C)C(=O)O)o2)sc1-c1ccc(S(=O)(=O)N[C@@H](C)C(F)(F)F)c(F)c1C(F)F . 363

Looking for the measured solubility of C[C@H](NS(=O)(=O)c1ccc(-c2sc(-c3nnc(CC(C)(C)C(=O)O)o3)nc2CN2CCCC(F)(F)C2)c(C(F)F)c1F)C(F)(F)F , can you help? 182

What value of solubility has been reported for the following molecule? C[C@H](NS(=O)(=O)c1ccc(-c2sc(-c3nnc(C(C)(C)O)o3)nc2C(=O)N2CCC(F)(F)CC2)c(Cl)c1Cl)C(F)(F)F 35

// lookup solubility for CCN(CC)C(=O)c1nc(-c2nnc(C(C)(C)O)o2)sc1-c1ccc(S(=O)(=O)N[C@@H](C)C(F)(F)F)c(Cl)c1Cl 55

What measured solubility goes with CC[C@H](NS(=O)(=O)c1ccc(-c2sc(-c3nnc(CC(C)(C)C(=O)O)o3)nc2CC2CCCC2)c(C(F)F)c1F)C(F)(F)F ? 69

Which solubility is reported for this molecule? C[C@H](NS(=O)(=O)c1ccc(-c2sc(-c3nnc(CC(C)(C)C(=O)O)o3)nc2Cc2ccc(F)cc2)c(C(F)F)c1F)C(F)(F)F 57

* * *

Test: AUC in rat at 300 mg/kg, po measured on day 1
Type: ADME, organism-based
Details: in vivo
reported_property: AUC

Which AUC is listed for CC[C@H](NS(=O)(=O)c1ccc(-c2sc(CC(C)(C)C(=O)O)nc2CC2CCC2)c(C(F)F)c1F)C(F)(F)F ? 4710 µg·h/mL

* * *

Entries and their measured bioavailability follow.
Assay: Oral bioavailability in rat at 1 mg/kg
Format: ADME, organism-based
Conditions: in vivo
Kindly provide the numeric value in % only, without the unit symbol.

Please review the following examples before continuing.
{"columns": ["chemical_string", "reported_property", "readout_number"],
 "data": [
  ["C[C@H](NS(=O)(=O)c1ccc(-c2sc(-c3nnc(CC(C)(C)C(=O)O)o3)nc2CC2CCC2)c2ccccc12)C(F)(F)F", "bioavailability", 96],
  ["C[C@H](NS(=O)(=O)c1ccc(-c2sc(-c3nnc(C(C)(C)O)o3)nc2C(=O)N2CCC(F)(F)CC2)c(Cl)c1Cl)C(F)(F)F", "bioavailability", 47],
  ["CC(C)(C)NS(=O)(=O)c1ccc(-c2sc(C(=O)N[C@H]3C[C@H](C(=O)O)C3)nc2CC2CCCCC2)c2ccccc12", "bioavailability", 20]
]}

Please look at the following molecule next.
Item under review: CC[C@H](NS(=O)(=O)c1ccc(-c2sc(CC(C)(C)C(=O)O)nc2CC2CCC2)c(C(F)F)c1F)C(F)(F)F . Reported bioavailability? 112

* * *

Assay: Solubility of compound by pH 2
Format: physicochemical
Conditions: buffer
reported_property: solubility

Answered cases to consult:
{"columns": ["chemical_string", "solubility"],
 "data": [
  ["C[C@H](NS(=O)(=O)c1ccc(-c2sc(-c3nnc(CC(C)(C)C(=O)O)o3)nc2Cc2ccc(F)cc2)c(C(F)F)c1F)C(F)(F)F", "< 4 µM"],
  ["CC(C)(C)NS(=O)(=O)c1ccc(-c2sc(C(=O)N[C@H]3C[C@H](C(=O)O)C3)nc2CC2CCCCC2)c2ccccc12", "< 1 µM"],
  ["C[C@H](NS(=O)(=O)c1ccc(-c2sc(-c3nnc(CC(C)(C)C(=O)O)o3)nc2CC2CCC2)c2ccccc12)C(F)(F)F", "< 4 µM"]
]}

Name the reported solubility value associated with the molecule CC[C@H](NS(=O)(=O)c1ccc(-c2sc(CC(C)(C)C(=O)O)nc2CC2CCC2)c(Cl)c1Cl)C(F)(F)F < 4 µM

* * *

Assay: Plasma concentration in mouse at 30 mg/kg, po measured after 2 hrs
Assay type: ADME, organism-based
reported_property: concentration at 2 h
Your answer should be a number followed by the unit of measure.

Please report the recorded concentration at 2 h for CC[C@H](NS(=O)(=O)c1ccc(-c2sc(CC(C)(C)C(=O)O)nc2CC2CCC2)c(C(F)F)c1F)C(F)(F)F . 46.4 µM

* * *

Molecular target: Cytochrome P450 2C19 (Homo sapiens)
Sequence (P33261 whole entry): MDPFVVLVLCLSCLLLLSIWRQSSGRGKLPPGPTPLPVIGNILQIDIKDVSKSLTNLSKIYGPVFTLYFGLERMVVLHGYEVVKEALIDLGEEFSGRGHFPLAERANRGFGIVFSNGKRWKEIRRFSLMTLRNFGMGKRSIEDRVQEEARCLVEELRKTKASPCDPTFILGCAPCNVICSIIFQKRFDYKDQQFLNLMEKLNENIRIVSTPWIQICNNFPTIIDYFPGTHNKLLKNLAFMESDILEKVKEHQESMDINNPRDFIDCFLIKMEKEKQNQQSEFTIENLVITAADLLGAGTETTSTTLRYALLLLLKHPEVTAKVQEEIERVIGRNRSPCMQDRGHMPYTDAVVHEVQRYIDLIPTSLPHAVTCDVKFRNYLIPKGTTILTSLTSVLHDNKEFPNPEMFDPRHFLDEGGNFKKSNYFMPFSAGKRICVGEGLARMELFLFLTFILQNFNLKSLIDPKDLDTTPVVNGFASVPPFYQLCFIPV
reported_property: pIC50
// pIC50 here means minus log10 of the molar concentration (mol/L)

Param item = C[C@H](NS(=O)(=O)c1ccc(-c2sc(-c3cc(CC(C)(C)C(=O)O)ncn3)nc2CC2CCC2)c(Cl)c1Cl)C(F)(F)F ; retrieve measured pIC50. 6.10

* * *

Biological target: Nuclear receptor ROR-gamma (Mus musculus, UniProt P51450)
Sequence (P51450 whole entry): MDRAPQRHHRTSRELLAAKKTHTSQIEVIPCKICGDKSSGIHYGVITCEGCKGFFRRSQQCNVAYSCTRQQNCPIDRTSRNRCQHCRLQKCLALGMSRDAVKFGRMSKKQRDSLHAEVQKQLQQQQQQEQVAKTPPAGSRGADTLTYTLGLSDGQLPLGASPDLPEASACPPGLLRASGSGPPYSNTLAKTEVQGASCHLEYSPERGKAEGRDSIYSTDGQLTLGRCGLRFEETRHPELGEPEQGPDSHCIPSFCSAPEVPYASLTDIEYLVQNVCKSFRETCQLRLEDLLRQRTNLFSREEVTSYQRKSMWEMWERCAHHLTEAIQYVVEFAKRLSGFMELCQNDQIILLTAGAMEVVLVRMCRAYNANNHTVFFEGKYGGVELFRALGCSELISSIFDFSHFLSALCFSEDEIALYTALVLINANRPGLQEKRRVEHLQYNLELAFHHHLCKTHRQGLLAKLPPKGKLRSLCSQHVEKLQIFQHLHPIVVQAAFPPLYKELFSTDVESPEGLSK
Test: Inverse agonist activity at RORgammat in mouse whole blood assessed as reduction in IL-17a production
Rule: measured IC50 below 200 nM gets 1.0; anything equal to or greater than 200 nM gets 0.0.

Some solved entries appear below for comparison.
{"columns": ["chemical_string", "experimental_target", "cat"],
 "data": [
  ["C[C@H](NS(=O)(=O)c1ccc(-c2sc(CC(C)(C)C(=O)O)nc2CC2CCC2)c(Cl)c1Cl)C(F)(F)F", "Nuclear receptor ROR-gamma (Mus musculus, UniProt P51450)", 0.0],
  ["C[C@H](NS(=O)(=O)c1ccc(-c2sc(-c3nnc(CC(C)(C)C(=O)O)o3)nc2CN2CCCC(F)(F)C2)c(C(F)F)c1F)C(F)(F)F", "Nuclear receptor ROR-gamma (Mus musculus, UniProt P51450)", 0.0],
  ["C[C@H](NS(=O)(=O)c1ccc(-c2sc(-c3noc(CC(C)(C)C(=O)O)n3)nc2CC2CCC2)c(Cl)c1Cl)C(F)(F)F", "Nuclear receptor ROR-gamma (Mus musculus, UniProt P51450)", 0.0],
  ["CC[C@H](NS(=O)(=O)c1ccc(-c2sc(CC(C)(C)C(=O)O)nc2CC2CCC2)c(C(F)F)c1F)C(F)(F)F", "Nuclear receptor ROR-gamma (Mus musculus, UniProt P51450)", 0.0],
  ["CC[C@H](NS(=O)(=O)c1ccc(-c2sc(-c3nnc(CC(C)(C)O)o3)nc2C(=O)N2CCC(F)CC2)c(Cl)c1Cl)C(F)(F)F", "Nuclear receptor ROR-gamma (Mus musculus, UniProt P51450)", 1.0]
]}

# ---- query molecule ----
IC50 under 200 nM? Item: CCN(CC)C(=O)c1nc(-c2nnc(C(C)(C)O)o2)sc1-c1ccc(S(=O)(=O)N[C@@H](C)C(F)(F)F)c(Cl)c1Cl 1.0

# credit: ChEMBL document CHEMBL4622850
